Reference source for all entries: ChEMBL document CHEMBL1201862

Reported GI50 by item:
System: UACC-257
test_protocol: NCI tumour cell line growth inhibition, 48 h
Activity calls are given as the source filed them. Rule as the data show it: active = GI50 up to about 1.1 µM and inactive = higher.

Request: Any idea what its GI50 is? The compound is CC(C)n1c(=O)c2nn3c(=O)n(C(C)C)c(=O)c3nn2c1=O
Result: > 100 µM (inactive)

Request: Any idea what its GI50 is? The compound is O=C1NCC(CSc2nc3cc(C4CCCc5c4[nH]c4ccccc54)ccc3o2)N1 (centres undefined)
Result: 45.1 µM (inactive)

---

Test system: UACC-62
test_protocol: NCI tumour cell line growth inhibition, 48 h
The source made the active and inactive calls. No stated cut-off is given here; in the data, active = GI50 up to about 1.1 µM and inactive = higher.
Response enum: class 1 (active), class 0 (inactive)

# count of solved cases: 5
COc1ccc(-n2c(N)c(C#N)[nH]c2=O)cc1; class 0
CC(C)(C)C1=CC(=C(P(=O)(O)O)P(=O)(O)O)C=C(C(C)(C)C)C1=O; class 0
CCCSc1ccc2[nH]c(N3C(=O)/C(=C/c4ccco4)N=C3c3ccccc3)cc2c1; class 0
CCCC(=O)OC[n+]1ccc(-c2c(COC(=O)NC(C)C)c(COC(=O)NC(C)C)c3n2CCC3)cc1; class 0
C=CCNC(=S)NC=C(C(N)=O)C(N)=O; class 0

Request: Name the outcome recorded for Cc1cc2c(cc1C)N1C(Cl)=C3CCCCC3=C(C#N)C1N2 (stereo not given) in the assay.
Result: class 0

Request: Name the outcome recorded for C/C=C1\Oc2ccc(OC)cc2S1(=O)=O in the assay.
Result: class 0

Request: Name the outcome recorded for Cn1cnc([N+](=O)[O-])c1Sc1nc2ccccc2o1 in the assay.
Result: class 0

Request: Name the outcome recorded for O=C(O)/C=C\C(=O)Nc1ccc2c(c1)-c1ccccc1C2 in the assay.
Result: class 0

Request: Name the outcome recorded for CC(=O)O[C@@H]1C[C@@]2(C)[C@@H]3CC=C4[C@@H](C[C@H](O)C(=O)C4(C)C)[C@]3(C)C(=O)C[C@]2(C)[C@H]1[C@@](C)(O)C(=O)/C=C/C(C)(C)OC(C)=O in the assay.
Result: class 0
